assay.comment: Equilibrium solubility of vitamin A in supercritical CO2 (static cell, UV-VIS)
Type: physicochemical
experimental.parameters: SC-CO2, 313 K, 235 bar

compound	Mole fraction
CC1=C(/C=C/C(C)=C/C=C/C(C)=C/CO)C(C)(C)CCC1 [vitamin A, Retinol]	0.000138

* * *

assay.comment: Equilibrium solubility of vitamin A in supercritical CO2 (static cell, UV-VIS)
Assay type: physicochemical
experimental.parameters: SC-CO2, 323 K, 235 bar
readout.type: Mole fraction

mol.smiles	readout.type	measured.value
CC1=C(/C=C/C(C)=C/C=C/C(C)=C/CO)C(C)(C)CCC1	Mole fraction	0.000196

* * *

assay.comment: Equilibrium solubility of vitamin A in supercritical CO2 (static cell, UV-VIS)
Assay type: physicochemical
experimental.parameters: SC-CO2, 303 K, 140 bar
readout.type: Mole fraction

mol.smiles	readout.type	measured.value
CC1=C(/C=C/C(C)=C/C=C/C(C)=C/CO)C(C)(C)CCC1	Mole fraction	4.12e-05

* * *

assay.comment: Equilibrium solubility of vitamin A in supercritical CO2 (static cell, UV-VIS)
Format: physicochemical
experimental.parameters: SC-CO2, 313 K, 100 bar
readout.type: Mole fraction

molecule	measured.value
CC1=C(/C=C/C(C)=C/C=C/C(C)=C/CO)C(C)(C)CCC1 [vitamin A, Retinol]	1.68e-05

* * *

assay.comment: Equilibrium solubility of vitamin A in supercritical CO2 (static cell, UV-VIS)
Type: physicochemical
experimental.parameters: supercritical CO2 in a 10 mL static equilibrium cell, organic solvent or mixture, thermodynamic from solid; SC-CO2, 303–323 K, 90–235 bar; minimum at 303 K, 90 bar, maximum at 323 K, 235 bar; read-out: equilibrium solubility S of Vitamin A in SC-CO2, span over all conditions
readout.type: solubility thermodynamic at 60 min

mol.smiles	measured.value
CC1=C(/C=C/C(C)=C/C=C/C(C)=C/CO)C(C)(C)CCC1	96 to 1040 µg/mL
